- system.under.test: T1, monkey GPC3-His protein (monkey)
- T1 construct: Bought recombinant protein; also called monkey GPC3 protein
- assay.comment: ELISA, monkey GPC3-His coated;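 note: Plate-coated antigen at 1 µg/mL, antibody binding 2 h at 37 °C, detected with HRP-labeled secondary antibody and TMB, absorbance at 450 nm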
property.name: OD450 at 0.1 nM (OD450)
A number alone suffices; assume OD450.

# annotated cases, reported OD450 at 0.1 nM shown
binder | result.unit | OD450 at 0.1 nM
F2.55.11 (antibody, human IgG1, kappa, V domains shown, Human-murine chimeric antibody) VH: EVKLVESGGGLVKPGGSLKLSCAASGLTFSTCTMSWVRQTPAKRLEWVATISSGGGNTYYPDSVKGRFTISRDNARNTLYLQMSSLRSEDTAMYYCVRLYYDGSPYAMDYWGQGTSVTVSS VL: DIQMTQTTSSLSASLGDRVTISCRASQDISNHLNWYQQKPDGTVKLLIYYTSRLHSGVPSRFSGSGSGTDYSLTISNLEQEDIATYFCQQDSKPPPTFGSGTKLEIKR | OD450 | 1.76
F1.21.8 (antibody, human IgG1, kappa, V domains shown, Human-murine chimeric antibody) VH: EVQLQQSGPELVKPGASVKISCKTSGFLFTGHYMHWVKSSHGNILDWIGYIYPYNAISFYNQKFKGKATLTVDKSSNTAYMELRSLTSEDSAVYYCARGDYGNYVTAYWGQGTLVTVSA VL: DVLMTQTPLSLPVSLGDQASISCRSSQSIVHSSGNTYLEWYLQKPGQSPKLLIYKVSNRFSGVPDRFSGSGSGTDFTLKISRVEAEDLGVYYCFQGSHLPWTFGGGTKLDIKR | OD450 | 0.51
F1.120.16 (antibody, human IgG1, kappa, V domains shown, Human-murine chimeric antibody) VH: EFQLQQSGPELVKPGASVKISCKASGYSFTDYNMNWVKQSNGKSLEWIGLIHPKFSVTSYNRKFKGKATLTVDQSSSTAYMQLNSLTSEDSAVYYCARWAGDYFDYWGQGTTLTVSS VL: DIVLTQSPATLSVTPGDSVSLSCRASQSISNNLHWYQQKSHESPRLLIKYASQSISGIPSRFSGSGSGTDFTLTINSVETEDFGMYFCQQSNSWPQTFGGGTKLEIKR | OD450 | 1.11
F3.81.19 (antibody, human IgG1, kappa, V domains shown, Human-murine chimeric antibody) VH: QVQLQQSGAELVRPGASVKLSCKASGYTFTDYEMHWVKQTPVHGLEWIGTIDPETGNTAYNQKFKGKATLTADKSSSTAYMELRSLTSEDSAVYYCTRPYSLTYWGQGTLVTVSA VL: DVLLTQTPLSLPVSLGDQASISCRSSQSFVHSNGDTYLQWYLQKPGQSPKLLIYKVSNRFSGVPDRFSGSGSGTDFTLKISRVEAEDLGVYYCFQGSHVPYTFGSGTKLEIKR | OD450 | 0.62

Next:
For the binder F1.73.9 (antibody, human IgG1, kappa, V domains shown, Human-murine chimeric antibody) VH: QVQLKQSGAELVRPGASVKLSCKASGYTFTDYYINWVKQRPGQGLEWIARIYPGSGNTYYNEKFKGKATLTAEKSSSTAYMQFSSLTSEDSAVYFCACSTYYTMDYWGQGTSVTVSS VL: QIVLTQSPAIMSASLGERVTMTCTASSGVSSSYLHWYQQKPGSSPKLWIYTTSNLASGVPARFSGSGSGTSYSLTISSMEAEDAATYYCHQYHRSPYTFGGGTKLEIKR , give its measured OD450 at 0.1 nM value.
0.73
